System: MCF10A
Assay: percent viability (nuclei count relative to siNT); higher = more viable cells
Conditions: 20 nM; 72 h
Items are presented alongside their recorded percent viability.

[
  {
    "Sequence Input": "CUCUAGAGGGAAGCGCUUUCUG [hsa-miR-522-5p]",
    "Target Desc": "MCF10A",
    "percent viability (%)": 40.6
  },
  {
    "Sequence Input": "UUGGGGAUUGGGUCAGGCCAGU [hsa-miR-6857-5p]",
    "Target Desc": "MCF10A",
    "percent viability (%)": 6.01
  },
  {
    "Sequence Input": "AUAUACCUGUUCGGUCUCUUUA [hsa-miR-3144-3p]",
    "Target Desc": "MCF10A",
    "percent viability (%)": 30
  },
  {
    "Sequence Input": "AGGAGGAAUUGGUGCUGGUCUU [hsa-miR-766-5p]",
    "Target Desc": "MCF10A",
    "percent viability (%)": 5.17
  },
  {
    "Sequence Input": "GGCGGAGGGAAGUAGGUCCGUUGGU [hsa-miR-658]",
    "Target Desc": "MCF10A",
    "percent viability (%)": 63
  },
  {
    "Sequence Input": "ACUGAGCCUCUCUCUCUCCAG [hsa-miR-6751-3p]",
    "Target Desc": "MCF10A",
    "percent viability (%)": 65.4
  },
  {
    "Sequence Input": "CUGACUGUUGCCGUCCUCCAG [hsa-miR-943]",
    "Target Desc": "MCF10A",
    "percent viability (%)": 62.9
  },
  {
    "Sequence Input": "GAACGCCUGUUCUUGCCAGGUGG [hsa-miR-614]",
    "Target Desc": "MCF10A",
    "percent viability (%)": 72.8
  },
  {
    "Sequence Input": "CUGUCCUAAGGUUGUUGAGUU [hsa-miR-676-3p]",
    "Target Desc": "MCF10A",
    "percent viability (%)": 20.8
  },
  {
    "Sequence Input": "CGUCCCGGGGCUGCGCGAGGCA [hsa-miR-4449]",
    "Target Desc": "MCF10A",
    "percent viability (%)": 75.7
  },
  {
    "Sequence Input": "GGUGGGGGGUGUUGUUUU [hsa-miR-4472]",
    "Target Desc": "MCF10A",
    "percent viability (%)": 40
  },
  {
    "Sequence Input": "CACACAUAGCAGGUGUAUAUA [hsa-miR-4789-3p]",
    "Target Desc": "MCF10A",
    "percent viability (%)": 67.3
  }
]

* * *

Tested on: MCF10A
Assay: 5+ nucleoli phenotype percent effect (relative to siNT 0% and siKIF11 100%); higher = more cells with five or more nucleoli
Details: 20 nM; 72 h
Collected 5+ nucleoli phenotype percent effect values appear next to each entry.
Measured Endpoint: 5+ nucleoli phenotype percent effect (%)

[
  {
    "Sequence Input": "UUAGGGCCCUGGCUCCAUCUCC [hsa-miR-1296]",
    "Target Desc": "MCF10A",
    "Measured Number": 13.2
  },
  {
    "Sequence Input": "UUUGGUCCCCUUCAACCAGCUA [hsa-miR-133b]",
    "Target Desc": "MCF10A",
    "Measured Number": -11.4
  },
  {
    "Sequence Input": "CGCAUCCCCUAGGGCAUUGGUGU [hsa-miR-324-5p]",
    "Target Desc": "MCF10A",
    "Measured Number": 21.4
  },
  {
    "Sequence Input": "UGCUAUGCCAACAUAUUGCCAU [hsa-miR-31-3p]",
    "Target Desc": "MCF10A",
    "Measured Number": -33.1
  },
  {
    "Sequence Input": "GCAGGUGCUCACUUGUCCUCCU [hsa-miR-764]",
    "Target Desc": "MCF10A",
    "Measured Number": -23.5
  },
  {
    "Sequence Input": "CUGACCUAUGAAUUGACAGCC [hsa-miR-192-5p]",
    "Target Desc": "MCF10A",
    "Measured Number": -30
  },
  {
    "Sequence Input": "UCAGAACAAAUGCCGGUUCCCAGA [hsa-miR-589-3p]",
    "Target Desc": "MCF10A",
    "Measured Number": 5.52
  },
  {
    "Sequence Input": "AACAUCACUGCAAGUCUUAACA [hsa-miR-499b-3p]",
    "Target Desc": "MCF10A",
    "Measured Number": -7.16
  },
  {
    "Sequence Input": "AGCCAGGCUCUGAAGGGAAAGU [hsa-miR-4755-3p]",
    "Target Desc": "MCF10A",
    "Measured Number": 3.33
  },
  {
    "Sequence Input": "AGGGGGGCACUGCGCAAGCAAAGCC [hsa-miR-6885-5p]",
    "Target Desc": "MCF10A",
    "Measured Number": -29.8
  },
  {
    "Sequence Input": "UCACGCGGAGAGAUGGCUUUG [hsa-miR-3186-3p]",
    "Target Desc": "MCF10A",
    "Measured Number": -13.4
  }
]

Values compiled from the supplement of paper PMC10899765.
